Provenance of the data: ChEMBL document CHEMBL3608261

# Test system: Rattus norvegicus
# protocol description: Iron clearing efficiency in bile duct cannulated Sprague-Dawley rat assessed as clearance of iron in bile at 300 umol/kg, po measured at 3 hrs intervals for up to 48 hrs relative to control
# Format: functional
endpoint name: Activity (%)
Express it in %; write the number only.

>>> test_result("C[C@]1(C(=O)O)CSC(c2ccc(OCC(=O)O)cc2O)=N1")
89

Value (Activity, Rattus norvegicus) for record C[C@]1(C(=O)O)CSC(c2ccc(OCCOCCO)cc2O)=N1 = 98

====

# Test system: Sapajus apella
# protocol description: Iron clearing efficiency in bile duct cannulated Cebus apella assessed as clearance of iron in bile at 75 umol/kg, sc measured at 3 hrs intervals for up to 48 hrs relative to control
# Type: functional
# Activity per record follows
Express it in %; write the number only.

Record summary for C[C@]1(C(=O)[O-])CSC(c2ccc(OCC(=O)O)cc2O)=N1.[Na+] : reported Activity = 53

====

# Tested on: Rattus norvegicus
# protocol description: Drug metabolism in Sprague-Dawley rat plasma assessed as parent compound and metabolite level at 300 umol/kg, sc after 8 hrs by HPLC analysis
# Format: ADME, organism-based
# test parameters: in vivo, read-out: Drug metabolism
endpoint name: concentration (µM)
Express it in µM; write the number only.

Record summary for C[C@]1(C(=O)O)CSC(c2ccc(OCCCCCCO)cc2O)=N1 : reported concentration = 23

====

# Tested on: Rattus norvegicus
# protocol description: Iron clearing efficiency in bile duct cannulated Sprague-Dawley rat assessed as clearance of iron in bile at 300 umol/kg, po measured at 3 hrs intervals for up to 48 hrs relative to control
# Format: functional
endpoint name: Activity (%)
Express it in %; write the number only.

# annotated cases, reported Activity shown
>>> test_result("COCCCCCCOc1ccc(C2=N[C@@](C)(C(=O)O)CS2)c(O)c1")
99
>>> test_result("COCCOCCOc1ccc(C2=N[C@@](C)(C(=O)O)CS2)c(O)c1")
97
>>> test_result("C[C@]1(C(=O)O)CSC(c2ccc(OCCCCCCO)cc2O)=N1")
96

Record summary for C[C@]1(C(=O)O)CSC(c2ccc(OCCCC(=O)O)cc2O)=N1 : reported Activity = 89

Record summary for C[C@]1(C(=O)O)CSC(c2ccc(OCCCCCC(=O)O)cc2O)=N1 : reported Activity = 94

Record summary for C[C@]1(C(=O)O)CSC(c2ccc(OCCOCC(=O)O)cc2O)=N1 : reported Activity = 100

====

# Test system: Sapajus apella
# protocol description: Iron clearing efficiency in bile duct cannulated Cebus apella assessed as clearance of iron in bile at 75 umol/kg, sc measured at 3 hrs intervals for up to 48 hrs relative to control
# Assay type: functional
# Activity per record follows
Express it in %; write the number only.

>>> test_result("C[C@]1(C(=O)[O-])CSC(c2ccc(OCCCC(=O)O)cc2O)=N1.[Na+]")
78
>>> test_result("C[C@]1(C(=O)[O-])CSC(c2ccc(OCCOCC(=O)O)cc2O)=N1.[Na+]")
84

Turning now to a further record.
Record summary for C[C@]1(C(=O)[O-])CSC(c2ccc(OCCCCCC(=O)O)cc2O)=N1.[Na+] : reported Activity = 69
